# Substrate: PET
# testProtocol: Proxy for plastic degradation [Released monomer concentration (HPLC/LC-MS) (TPA+MHET+BHET)] (s⁻¹)
# experimentalConditions: pH 9
Give measured Proxy for plastic degradation for each item. Keep answers brief.

Quick note, Proxy for plastic degradation for unnamed (protein) MNFPRASRLMQAAVLGGLMAVSAAATAQTNPYARGPNPTAASLEASAGPFTVRSFTVSRPSGYGAGTVYYPTNAGGTVGAIAIVPGYTARQSSIKWWGPRLASHGFVVITIDTNSTLDQPSSRSSQQMAALRQVASLNGTSSSPIYGKVDTARMGVMGHSMGGGGSLISAANNPSLKAAAPQAPWDSSTNFSSVTVPTLIFACENDSIAPVNSSALPIYDSMSRNAKQFLEINGGSHSCANSGNSNQALIGKKGVAWMKRFMDNDTRYSTFACENPNSTRVSDFRTANCS landed at 0.03

Per the record, unnamed (protein) MNFPRASRLMQAAVLGGLMAVSAAATAQTNPYARGPNPTAASLEASAGPFTVRSFTVSRPSGYGAGTVYYPTNAGGTVGAIAIVPGYTARQSSIKWWGPRLASHGFVVITIDTNSTLDQPSSRSSQQMAALRQVASLNGTSSSPIYGKVDTARMGVMGWSMGGGGSLISAANNPSLKAAAPQAPWDSSTNFSSVTVPTLIFAAENDSIAPVNSSALPIYDSMSRNAKQFLEINGGSHSAANSGNSNQALIGKKGVAWMKRFMDNDTRYSTFACENPNSTRVSDFRTANCS has Proxy for plastic degradation of 0

The protein listed as unnamed (protein) MNFPRASRLMQAAVLGGLMAVSAAATAQTNPYARGPNPTAASLEASAGPFTVRSFTVSRPSGYGAGTVYYPTNAGGTVGAIAIVPGYTARQSSIKWWGPRLASHGFVVITIDTNSTLDQPSSRSSQQMAALRQVASLNGTSSSPIYGKVDTARMGVMGWSMGGGGSLISAANNPSLKAAAPQAPWDSSTNFSSVTVPTLIFACENDSIAPVNSSALPIYDSMSRNAKQFLEINGGSHFCANSGNSNQALIGKKGVAWMKRFMDNDTRYSTFACENPNSTRVSDFRTANCS has a reported Proxy for plastic degradation of 0.037

Lookup result for unnamed (protein) MNFPRASRLMQAAVLGGLMAVSAAATAQTNPYARGPNPTAASLEASAGPFTVRSFTVSRPSGYGAGTVYYPTNAGGTVGAIAIVPGYTARQSSIKWWGPRLASHGFVVITIDTNSTLDQPSSRSSQQMAALRQVASLNGTSSSPIYGKVDTARMGVMGHSMGGGGSLISAANNPSLKAAAPQAPWDSSTNFSSVTVPTLIFAAENDSIAPVNSSALPIYDSMSRNAKQFLEINGGSHFAANSGNSNQALIGKKGVAWMKRFMDNDTRYSTFACENPNSTRVSDFRTANCS ; measured Proxy for plastic degradation: 0
